system: V-C8 (BRCA2-deficient hamster cells); assay: normalised cell viability (fraction of plate median); higher = more viable cells (less toxic); conditions: treatment time: 3 days; 5 µM
Counter-ions that a name gives are not always drawn. Whole data set: some 1,300 compounds, median “normalised cell viability” near 1, cut for the lowest 2% near 0.14. Shown is part of a subset that was picked to be rich in the lowest values.
Readout label: normalised cell viability
API note: the answer field is a bare number with no unit suffix.

1. Nc1ccn([C@H]2CC[C@@H](CO)O2)c(=O)n1 [Zalcitabine] :: 1.02

Look up normalised cell viability for this molecule: CCCc1cc(=O)[nH]c(=S)[nH]1 [Propylthiouracil]
1.02

So what does the record say about normalised cell viability for CN(C)[C@@H]1C(O)=C(C(N)=O)C(=O)[C@@]2(O)C(O)=C3C(=O)c4c(O)cccc4[C@@](C)(O)[C@H]3[C@H](O)[C@@H]12 [Oxytetracycline dihydrate] ?
0.991

Any idea what its normalised cell viability is? The molecule is Cc1cccc(N(C)C(=S)Oc2ccc3ccccc3c2)c1 [Tolnaftate]
1

Reported normalised cell viability for CCCNC(C)(C)COC(=O)c1ccccc1 [Meprylcaine hydrochloride] : what is it?
1

# normalised cell viability lookup, item O=C1C=CC(=O)c2c1ccc1c2ccc2ccccc21 [Chrysene-1,4-quinone]
1.02

Consider the molecule shown here: CC(C)(C)NCC(O)COc1cccc2c1CC(O)C(O)C2 (stereo not given) [Nadolol] What is its recorded normalised cell viability?
1.02

Need normalised cell viability of CC(=O)O[C@H]1C[C@@H]2CC[C@@H]3[C@H](CC[C@@]4(C)[C@H]3C[C@H]([N+]3(C)CCCCC3)[C@@H]4OC(C)=O)[C@@]2(C)C[C@@H]1N1CCCCC1 [Vecuronium bromide] , thanks.
1.01

# query: normalised cell viability of entry CC(C)(C)C(=O)OCOC(=O)[C@@H]1N2C(=O)[C@@H](NC(=O)[C@H](N)c3ccccc3)[C@H]2SC1(C)C [Pivampicillin]
1.02

I have this molecule here, C=C[C@H]1CN2CC[C@H]1C[C@@H]2[C@@H](O)c1ccnc2ccc(OC)cc12 [Quinidine hydrochloride monohydrate] , and I need its recorded normalised cell viability.
0.997

----------
test system: V-C8 (BRCA2-deficient hamster cells); test: normalised cell viability (fraction of plate median); higher = more viable cells (less toxic); conditions: treatment time: 6 days; 5 µM
Where a name gives a salt, the structure may show the parent alone. Over roughly 1,300 compounds, “normalised cell viability” has its median near 1; the lowest 2% begin near 0.14. The sample holds the lowest values, similar compounds and a random draw of the others, so the mix is not that of the screen.
Readout label: normalised cell viability

1) c1ccc([C@H]2CN3CCSC3=N2)cc1 [Levamisole hydrochloride] :: 1.02

Would you mind telling me what normalised cell viability value was observed for Clc1ccc(COC(Cn2ccnc2)c2ccc(Cl)cc2Cl)cc1 (centres undefined) [Econazole nitrate] ?
0.98

Give its normalised cell viability value. Item: O=C1c2c(O)cccc2Cc2cccc(O)c21 [Anthralin]
1

Form field: reported normalised cell viability of c1ccc(CC2=NCCN2)cc1 [Tolazoline hydrochloride]
0.98
